Values compiled from PubChem BioAssay (NCATS).

Test: qHTS of pediatric cancer cell lines to identify multiple opportunities for drug repurposing: Confirmatory screen for SJ-GBM2 cells (AID 1347116);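 further: 48 hour compound exposure; nearly all actives have a fitted effect of over 60% in size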; further: potency means the concentration at half of the fitted maximal effect
Conditions: SJ-GBM2 glioblastoma cells, viability; series mostly up to 45.9 µM
Results filed as inconclusive are left out. The source made the active and inactive calls. The call rests on the fitted dose curve; in most records, active means well fitted cell-killing curve with a large enough effect; inconclusive means small, poorly fitted or top-dose-only effect, or effect the other way; inactive means no such curve, though single readings can be large or run the other way.
observationType: Potency

compound	Potency
ClC1=C(Cl)C2(Cl)C(CBr)CC1(Cl)C2(Cl)Cl (configuration not stated)	inactive
CN(C)C(=S)SSC(=S)N(C)C	8.27 µM (active)
COC(=O)C1=CCCN(C)C1	inactive
CN1[C@@H]2CC[C@H]1CC(OC(=O)c1cc(Cl)cc(Cl)c1)C2 (some centres not stated)	inactive
CCCCCCCCC(=O)NCc1ccc(O)c(OC)c1	inactive

Ask: Could you tell me which Potency is on file for Cc1ccc([N+](=O)[O-])[c]2c1[O][Hg]2 ?
Reply: 4.14 µM (active)

Ask: Which Potency value belongs to CC[n+]1c(-c2ccccc2)c2cc(N)ccc2c2ccc(N)cc21 ?
Reply: 3.69 µM (active)
